Sourced from PubChem BioAssay (NCATS)

# Target Of Assay: Rap guanine nucleotide exchange factor 4 (Homo sapiens) (UniProt Q8WZA2)
# Sequence (Q8WZA2 whole entry, looked up): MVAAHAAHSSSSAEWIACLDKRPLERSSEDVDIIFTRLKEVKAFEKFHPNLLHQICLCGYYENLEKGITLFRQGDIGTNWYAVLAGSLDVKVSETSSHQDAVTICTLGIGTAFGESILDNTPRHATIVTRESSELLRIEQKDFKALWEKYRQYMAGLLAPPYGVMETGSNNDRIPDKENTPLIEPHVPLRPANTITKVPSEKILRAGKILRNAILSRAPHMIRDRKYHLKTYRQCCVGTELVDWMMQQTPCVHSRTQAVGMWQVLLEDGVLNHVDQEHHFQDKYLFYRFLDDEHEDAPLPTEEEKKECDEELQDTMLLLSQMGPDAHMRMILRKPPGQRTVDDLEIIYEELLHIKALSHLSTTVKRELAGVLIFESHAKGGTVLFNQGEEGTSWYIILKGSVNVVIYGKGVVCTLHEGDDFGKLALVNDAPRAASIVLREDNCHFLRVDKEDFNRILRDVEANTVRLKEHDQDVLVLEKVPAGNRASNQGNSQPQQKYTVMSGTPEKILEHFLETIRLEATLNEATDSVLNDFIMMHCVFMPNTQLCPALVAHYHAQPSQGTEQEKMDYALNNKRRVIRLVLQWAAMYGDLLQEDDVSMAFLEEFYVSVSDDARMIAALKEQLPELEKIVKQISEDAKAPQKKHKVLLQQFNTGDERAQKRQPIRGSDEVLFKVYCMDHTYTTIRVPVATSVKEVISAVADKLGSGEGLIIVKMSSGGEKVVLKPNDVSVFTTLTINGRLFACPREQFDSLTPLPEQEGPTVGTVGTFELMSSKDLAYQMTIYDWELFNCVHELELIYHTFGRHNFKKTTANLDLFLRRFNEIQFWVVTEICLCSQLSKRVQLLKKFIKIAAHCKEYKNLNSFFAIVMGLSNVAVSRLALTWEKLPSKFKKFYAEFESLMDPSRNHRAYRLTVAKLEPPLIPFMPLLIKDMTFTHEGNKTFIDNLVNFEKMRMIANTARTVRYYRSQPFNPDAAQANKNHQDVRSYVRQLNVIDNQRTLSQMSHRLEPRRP
# Procedure Text: Confirmatory qHTS for agonist of cAMP-regulated guanine nucleotide exchange factor 4 (EPAC2) (AID 1645884);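 note: nucleotide exchange releases bodipy-GDP from Rap1 and this lowers its fluorescence; nearly all actives have a fitted effect of over 65% in size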
# Assay Context: EPAC2 GEF activity, Rap1B-BODIPY-GDP fluorescence; series mostly up to 154 µM
Records with an inconclusive call do not appear. Active and inactive are the calls of the source. Calls come from the whole dose curve; as a rule, active = well fitted activation curve with a large enough effect; inconclusive = small, poorly fitted or top-dose-only effect; inactive = no such curve, though single readings can be large or run the other way.
Property: outcome

As a guide, the following entries are already answered.
Compound	outcome
N#C/C(=C\c1ccc(O)c(O)c1)C(=O)NCCCc1ccccc1	inactive
O=C1NC(=O)/C(=C/c2ccc(-c3ccc(F)cc3O)o2)S1	inactive
Brc1c(Br)c(Br)c2n[nH]nc2c1Br	inactive
Cc1ccc(O)c(N=Nc2ccccc2)n1	inactive
O=C1C(SCCO)=C(SCCO)C(=O)c2ccccc21	inactive

For each entry beneath this line, provide reported outcome.
1. O=C(O)c1ccccc1Nc1cccc(C(F)(F)F)c1
2. Oc1cc2c(cc1O)CN(C(=S)NCCc1ccc(Cl)cc1)CCC2
3. Nc1cc(-c2ccncc2)c[nH]c1=O
4. O=C1O/C(=C/Br)CCC1c1cccc2ccccc12 (stereo not given)
5. CCOC(=O)C1=C(C)NC(C)=C(C(=O)OCC)C1c1c(F)c(F)c(F)c(F)c1F

inactive
inactive
inactive
inactive
inactive

* * *

# Procedure Text: Cell Viability - LYMP2-022 (AID 987);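 note: cells exposed to compound for 24 hr; nearly all actives have a fitted effect of over 55% in size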
# Assay Context: LYMP2-022 lymphoblastoid cell viability; series mostly up to 92.2 µM
Results filed as inconclusive are left out. Active and inactive are the calls of the source. The call rests on the fitted dose curve; in most records, active means well fitted cell-killing curve with a large enough effect; inconclusive means small, poorly fitted or top-dose-only effect; inactive means flat fitted curve, though single readings scatter.
Outcome field: choose from active, inactive

Examples from the recorded data:
Compound	Category
CC1(C)S[C@@H]2[C@H](NC(=O)[C@H](N)c3ccccc3)C(=O)N2[C@H]1C(=O)O	inactive
c1ccc2sc(SSc3nc4ccccc4s3)nc2c1	inactive
Nc1ccc(O)c([N+](=O)[O-])c1	inactive
O=C(O)/C=C\C(=O)O	inactive
CC(C)NCC(O)COc1cccc2ccccc12 (stereo unspecified)	inactive
Nc1ccc(O)c(C(=O)O)c1	inactive
C#C[C@]1(O)CC[C@H]2[C@@H]3CCc4cc(O)ccc4[C@H]3CC[C@@]21C	inactive
Nc1nc2ccc([N+](=O)[O-])cc2s1	inactive
COc1cc(/C=C/C(=O)CC(=O)/C=C/c2ccc(O)c(OC)c2)ccc1O	active
c1cnc2c(c1)ccc1cccnc12	active

For the next question, use this compound.
For COc1cc(CNC(=O)CCCC/C=C/C(C)C)ccc1O , which call appears in the assay record?
inactive

* * *

Record form. Attribute: Z-AUC. Fill in for each entry.
# Procedure Text: qHTS drug screen for cell cycle checkpoint inhibitors in PARPi-resistant BRCA-mutant ovarian cancer cell lines. (AID 1963452)
# Assay Context: PEO1/OlaR viability, CellTiter-Glo luminescence, 96 h; measured here: PEO1 parental Z-AUC; stronger effect = lower value
One number for each entry.

As a guide, the following entries are already answered.
Compound	Property	Reported Result
COc1cc(CNC(=O)CCCC/C=C/C(C)C)ccc1O	Z-AUC	1.45
CCOC(=O)N1CCN(/[N+]([O-])=N/Oc2ccc([N+](=O)[O-])cc2[N+](=O)[O-])CC1	Z-AUC	1.72
COc1ccc(/C=C/C(=O)Nc2ccccc2C(=O)O)cc1OC	Z-AUC	1.51

For each entry beneath this line, provide reported Z-AUC.
1. C[N+]1(C)C2CC(OC(=O)[C@H](CO)c3ccccc3)CC1C1OC12 (some centres undefined)
2. O=C(Nc1ccc2c(c1)CCN(Cc1ncn[nH]1)C2)c1ccccc1-c1ccc(C(F)(F)F)cc1

1.91
-0.291

For each entry beneath this line, provide reported Z-AUC.
1. CCNC(=O)[C@H]1O[C@@H](n2cnc3c(N)nc(NCCc4ccc(CCC(=O)O)cc4)nc32)[C@H](O)[C@@H]1O
2. CC[C@H]1OC(=O)[C@H](C)[C@@H](O[C@H]2C[C@@](C)(OC)[C@@H](O)[C@H](C)O2)[C@H](C)[C@@H](O[C@@H]2O[C@H](C)C[C@H](N(C)C)[C@H]2O)[C@](C)(O)C[C@@H](C)C(=O)[C@H](C)[C@@H](O)[C@]1(C)O
3. O=C1NC(=O)/C(=C/c2ccc(-c3ccc(F)cc3O)o2)S1

[0.917, 0.909, -0.562]

Item under review: N.N.O=C(O)C1(C(=O)O)CCC1.[Pt] . Reported Z-AUC?
0.632

* * *

# Procedure Text: qHTS of pediatric cancer cell lines to identify multiple opportunities for drug repurposing: Confirmatory screen for NB1643 cells (AID 1347109); note: nearly all actives have a fitted effect of over 45% in size
# Assay Context: NB1643 neuroblastoma cell viability; series mostly up to 95.5 µM
# Experimental: Drug repurposing or repositioning has been offered as a strategy for drug development in oncology programs. […] [1] Shen, M et al. Quantitative high-throughput phenotypic screening of pediatric cancer cell lines identifies multiple opportunities for drug repurposing. […] Cells were assayed in growth media at a density of 500-1,000 cells/well. […] After a 15 min incubation at room temperature, samples were analyzed for luminescence intensity using a ViewLux High-throughput CCD imager equipped with clear filters.
Records with an inconclusive call do not appear. The source made the active and inactive calls. Calls come from the whole dose curve; as a rule, active = well fitted cell-killing curve with a large enough effect; inconclusive = small, poorly fitted or top-dose-only effect, or effect the other way; inactive = no such curve, though single readings can be large or run the other way.
Outcome field: choose from YES = active, NO = inactive

Smiles	Category
N=C1N=C(N)c2cc3ccccc3cc21	YES
[O-][n+]1ccccc1SSc1cccc[n+]1[O-]	YES
CN(C)c1ccc(C(=C2C=CC(=[N+](C)C)C=C2)c2ccccc2)cc1	YES
Nc1ccc([N+](=O)[O-])cc1O	NO

For the next question, use this molecule.
For Oc1c(Br)cc(Br)c2cccnc12 , which call appears in the assay record?
YES

* * *

# System: Zika virus NS2B-NS3 protease (unlinked complex)
# Procedure Text: Primary screen GU Rhodamine qHTS for Zika virus inhibitors: Unlinked NS2B-NS3 protease assay (AID 1347159); note: nearly all actives have a fitted effect of over 60% in size
# Assay Context: Recombinant ZIKV NS2B-NS3 protease, Rhodamine110 substrate fluorescence; series mostly up to 107 µM
Inconclusive results are not listed. Active and inactive are the calls of the source. Calls follow the shape of the dose curve; as a rule, active = well fitted inhibition curve with a large enough effect; inconclusive = small, poorly fitted or top-dose-only effect; inactive = no such curve, though single readings can be large or run the other way.
Outcome field: choose from active, inactive

For C[C@H](O)[C@H](O)[C@H]1CNc2nc(N)[nH]c(=O)c2N1 , which call appears in the assay record?
inactive

For CC(C(=O)O)c1ccc2c(c1)[nH]c1ccc(Cl)cc12 (stereo not given) , which call appears in the assay record?
active

For Cc1onc(-c2c(F)cccc2Cl)c1C(=O)N[C@@H]1C(=O)N2[C@@H]1SC(C)(C)[C@@H]2C(=O)O , which call appears in the assay record?
inactive

* * *

# Target Of Assay: Glutaminase kidney isoform, mitochondrial (Homo sapiens)
# Procedure Text: qHTS for Inhibitors of Glutaminase (GLS): LOPAC Validation (AID 624146); note: nearly all actives have a fitted effect of over 60% in size
# Assay Context: glutaminase enzyme activity inhibition; series mostly up to 46.1 µM
# Description: Glutaminase (GLS) catalyzes the hydrolysis of glutamine into glutamate and ammonia. It plays a critical role in glutaminolysis, which is an important energy source for proliferating cells. […] The overall goal of this project is to identify small molecule inhibitors of GLS through quantitative high throughput screening (qHTS) of the MLSMR. […]
Results filed as inconclusive are left out. Calls of active or inactive are those of the source. Calls follow the shape of the dose curve; as a rule, active = well fitted inhibition curve with a large enough effect; inconclusive = small, poorly fitted or top-dose-only effect; inactive = no such curve, though single readings can be large or run the other way.
Outcome field: choose from active, inactive

Molecule	Target Of Assay	Category
N=C(N)SCCc1ccc(CCSC(=N)N)cc1	Glutaminase kidney isoform, mitochondrial (Homo sapiens)	inactive
Nc1nc(SCc2ccc([N+](=O)[O-])cc2)c2ncn([C@@H]3O[C@H](CO)[C@@H](O)[C@H]3O)c2n1	Glutaminase kidney isoform, mitochondrial (Homo sapiens)	inactive
O=C(O)c1cc(=O)c2ccccc2[nH]1	Glutaminase kidney isoform, mitochondrial (Homo sapiens)	inactive

For CCCCCCCCCCCCCCCC(=O)NCC(COP(=O)([O-])OCC[N+](C)(C)C)OCC (stereo not drawn) , which call appears in the assay record?
inactive

For CN1CCc2cc(NC(=O)Nc3cccnc3)ccc21 , which call appears in the assay record?
inactive

For CCC1C(=O)OCC1Cc1cncn1C (stereo not drawn) , which call appears in the assay record?
inactive

For Oc1cc(O)cc(/C=C/c2ccc(O)c(O)c2)c1 , which call appears in the assay record?
active

For O=C(O)[C@@H]1C[C@H](C(=O)O)N1 , which call appears in the assay record?
inactive

For NCCNC(=O)c1ncsc1-c1cccc(F)c1 , which call appears in the assay record?
inactive

For CC(C)(C)c1ccc(S(=O)(=O)/C=C/C#N)cc1 , which call appears in the assay record?
active

* * *

# Procedure Text: qHTS Assay for Identification of Small Molecule Antagonists for Thrombopoietin (TPO) Signaling Pathway (AID 918); note: potency is the fitted concentration of half-maximal effect; nearly all actives have a fitted effect of over 60% in size
# Assay Context: TPO-dependent cell signaling reporter, antagonist mode
Inconclusive results are not listed. The source made the active and inactive calls. Calls come from the whole dose curve; as a rule, active = well fitted inhibition curve with a large enough effect; inconclusive = small, poorly fitted or top-dose-only effect, or effect the other way, or another doubt; inactive = flat fitted curve, though single readings scatter.
Property: Potency

As a guide, the following entries are already answered.
Smiles	Property	Reported Result
NC[C@@H]1O[C@H](C23CC4CC(CC(C4)C2)C3)Cc2c1ccc(O)c2O	Potency	10 µM (active)
O=Nc1ccc2oc(=O)ccc2c1	Potency	5.01 µM (active)
COC1=C(OC)C(=O)c2ccccc2C1=O	Potency	3.98 µM (active)
CN=c1nc(-c2ccccc2)n(-c2ccccc2)s1	Potency	2.51 µM (active)

// switching to the query compound
Item under review: O=C1C(SCCO)=C(SCCO)C(=O)c2ccccc21 . Reported Potency?
1.26 µM (active)
